# System: Cotton
# Protocol text: Postemergence Herbicidal Activity, Cotton
# Format: in vivo
# Conditions: Gossypium hirsutum, post-emergence, 2.0 kg/ha
Where a name gives a salt, the structure may show the parent alone.
Task for the reader: assign each of the following compounds its reported plant injury at 2000 g/ha.
Answers are plain numbers, in %.

Guide cases for plant injury at 2000 g/ha, answers given:
| Compound | Target or system | Reported |
| --- | --- | --- |
| CCCn1nnn(-c2cc(NS(=O)(=O)CC)c(Cl)cc2F)c1=O | Cotton | 100 |
| O=c1n(CCCF)nnn1-c1cc(NS(=O)(=O)C(F)(F)F)c(Cl)cc1F [Compound 32, potassium salt] | Cotton | 100 |
| CCS(=O)(=O)N(c1cc(-n2nnn(CCCF)c2=O)c(Cl)cc1F)S(=O)(=O)CC | Cotton | 70 |
| CS(=O)(=O)N(c1cc(-n2nnn(CCCF)c2=O)c(Cl)cc1F)S(C)(=O)=O | Cotton | 70 |
| CCS(=O)(=O)Nc1cc(-n2nnn(C)c2=O)c(F)cc1Cl | Cotton | 100 |

get_value(item= `CCCn1nnn(-c2cc(N(S(=O)(=O)CC)S(=O)(=O)CC)c(Cl)cc2F)c1=O` , readout=plant injury at 2000 g/ha) returns 100

====

Task for the reader: assign each of the following molecules its reported plant injury at 500 g/ha.
# System: Rice
# Protocol text: Preemergence Herbicidal Activity, Rice
# Type: in vivo
# Conditions: Oryza sativa, pre-emergence, 0.5 kg/ha
Numbers only, in %.

Consider the following items and state reported plant injury at 500 g/ha for each.
1. CCS(=O)(=O)N(CC#N)c1cc(-n2nnn(CCCF)c2=O)c(F)cc1Cl [Compound 16]
2. CCS(=O)(=O)N(c1cc(-n2nnn(CCCF)c2=O)c(F)cc1F)S(=O)(=O)CC [Compound 20]
3. CCS(=O)(=O)N(c1cc(-n2nnn(CCCF)c2=O)c(F)cc1Cl)S(=O)(=O)CC [Compound 21]

[70, 70, 80]

====

# Tested on: Wheat
# Protocol text: Preemergence Herbicidal Activity, Wheat
# Format: in vivo
# Conditions: Triticum aestivum, pre-emergence, 1.0 kg/ha
Task for the reader: assign each of the following compounds its reported plant injury at 1000 g/ha.
Give bare numbers, in %.

| Smiles representation | Property | Reported |
| --- | --- | --- |
| CCCS(=O)(=O)N(c1cc(-n2nnn(CCCF)c2=O)c(F)cc1Br)S(=O)(=O)CCC | plant injury at 1000 g/ha | 60 |
| CS(=O)(=O)N(c1cc(-n2nnn(CCCF)c2=O)c(F)cc1Br)S(C)(=O)=O | plant injury at 1000 g/ha | 90 |
| CS(=O)(=O)N(c1cc(-n2nnn(CCCF)c2=O)c(F)cc1Cl)S(C)(=O)=O | plant injury at 1000 g/ha | 90 |
| CS(=O)(=O)Nc1cc(-n2nnn(CCCF)c2=O)c(Cl)cc1F | plant injury at 1000 g/ha | 10 |

Consider now this further compound.
get_value(item= `CCCN(c1cc(-n2nnn(CCCF)c2=O)c(F)cc1Cl)S(=O)(=O)CC` , readout=plant injury at 1000 g/ha) returns 100
